- Target under test: T1, CD22 (UniProtKB-P20273) on CD22(+) cells (human, UniProt P20273 20-847)
- T1 construct: Endogenous CD22 on the NALM6 and Raji cell lines; also called SIGLEC-2; BL-CAM
- T1 sequence: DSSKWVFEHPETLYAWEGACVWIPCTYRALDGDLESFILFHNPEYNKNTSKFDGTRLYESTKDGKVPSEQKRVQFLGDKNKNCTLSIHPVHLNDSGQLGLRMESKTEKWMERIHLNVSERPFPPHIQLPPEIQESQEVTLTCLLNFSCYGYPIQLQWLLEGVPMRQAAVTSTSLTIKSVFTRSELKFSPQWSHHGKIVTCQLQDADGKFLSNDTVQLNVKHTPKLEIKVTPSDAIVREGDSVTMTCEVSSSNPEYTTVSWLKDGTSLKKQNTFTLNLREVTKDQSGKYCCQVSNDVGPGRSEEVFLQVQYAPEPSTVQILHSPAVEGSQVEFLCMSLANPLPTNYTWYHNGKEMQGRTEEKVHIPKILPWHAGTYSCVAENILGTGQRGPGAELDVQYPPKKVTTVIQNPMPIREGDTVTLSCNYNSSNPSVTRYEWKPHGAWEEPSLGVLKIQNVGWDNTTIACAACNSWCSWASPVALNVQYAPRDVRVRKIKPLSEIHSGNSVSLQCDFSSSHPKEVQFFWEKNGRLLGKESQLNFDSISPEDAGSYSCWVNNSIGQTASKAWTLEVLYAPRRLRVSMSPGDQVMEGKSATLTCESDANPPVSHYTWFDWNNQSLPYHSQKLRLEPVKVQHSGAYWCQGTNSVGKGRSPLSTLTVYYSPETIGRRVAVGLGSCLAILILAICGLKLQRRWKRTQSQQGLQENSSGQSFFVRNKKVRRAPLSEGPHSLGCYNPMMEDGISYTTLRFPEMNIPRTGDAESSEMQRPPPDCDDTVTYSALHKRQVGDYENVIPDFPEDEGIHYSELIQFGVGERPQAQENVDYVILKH
- Protocol notes: flow cytometry on CD22(+) NALM6 cells
Endpoint label: MFI (FACS NALM6)
Simply state the number, no unit and no words.

humanized LL2 L1 + H10 (antibody, V domains shown, Human IgG1 frameworks; also called H10L1) VH: QVQLVQSGAEVKKPGASVKVSCKASGYTFTSYWLHWVRQAPGQRLEWMGYINPRNDYTEYNQNFKDRVTLTADKSASTAYMELSSLRSEDTAVYYCARRDITTFYWGQGTTLTVSS VL: DIVLTQSPDSLAVSAGERVTMNCKSSQSVLYSANHKNYLAWYQQKPGQPPKLLIYWASTRESGVPDRFSGSGSGTDFTLTISSVQAEDVAIYYCHQYLSSWTFGGGTKLEIK: 32.7

Now take the following binder into account.
Answer with the recorded MFI (FACS NALM6) of humanized LL2 L1 + H1 (antibody, V domains shown, Human IgG1 frameworks) VH: QVQLVESGAEVKKPGASVKMSCKASGYTFTSYWLHWIRQAPGQRLEWIGYINPRNDYTKYSQKFQGRATITADKSASTAYMELSSLRSEDTAVYYCARRDITTFYWGQGTTLTVSS VL: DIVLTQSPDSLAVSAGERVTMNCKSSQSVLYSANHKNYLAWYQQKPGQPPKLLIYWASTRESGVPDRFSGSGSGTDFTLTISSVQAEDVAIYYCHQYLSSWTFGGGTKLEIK only.
26.4
